Target: Human Kv1.5 channels (Homo sapiens)
Construct: expressed in transfected cells; host or cells: Xenopus laevis oocytes injected with in vitro synthesized Kv1.5-encoding RNA
Sequence (P22460 whole entry): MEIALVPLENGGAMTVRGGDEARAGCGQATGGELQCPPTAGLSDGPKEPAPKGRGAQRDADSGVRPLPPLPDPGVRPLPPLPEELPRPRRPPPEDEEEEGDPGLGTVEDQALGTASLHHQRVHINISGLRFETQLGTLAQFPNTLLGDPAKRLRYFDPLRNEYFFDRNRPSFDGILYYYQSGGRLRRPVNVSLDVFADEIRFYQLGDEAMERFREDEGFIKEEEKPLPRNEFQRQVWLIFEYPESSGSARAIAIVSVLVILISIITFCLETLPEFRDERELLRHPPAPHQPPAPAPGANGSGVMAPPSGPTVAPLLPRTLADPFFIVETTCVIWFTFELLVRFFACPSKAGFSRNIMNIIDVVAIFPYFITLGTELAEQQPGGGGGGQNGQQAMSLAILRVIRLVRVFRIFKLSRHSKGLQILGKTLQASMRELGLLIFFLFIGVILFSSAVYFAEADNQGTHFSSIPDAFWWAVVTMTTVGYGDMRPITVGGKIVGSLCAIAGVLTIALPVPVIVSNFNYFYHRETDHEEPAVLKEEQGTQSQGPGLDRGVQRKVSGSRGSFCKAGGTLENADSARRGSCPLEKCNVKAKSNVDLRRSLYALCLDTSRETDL
Experiment: Kv1.5 currents in Xenopus oocytes, two-microelectrode voltage clamp
Format: cell-based
Details: human Kv1.5 expressed in Xenopus laevis oocytes; voltage jumps 500 ms to 0 mV and 40 mV; room temperature; Hill equation
Consider the following compounds; for each one, report its pIC50.
Scale: pIC50 equals -log10([C]), with [C] in mol/L.

// query Fill blank: measured pIC50 of the compound CCC(Cc1ccccc1)NC(=O)c1cc(OC)ccc1NS(=O)(=O)c1ccc(C)cc1 (stereo not shown) [Example 51] is ____.
// result 5.44

// query Fill blank: measured pIC50 of the compound Cc1ccc(S(=O)(=O)Nc2ccccc2C(=O)N(Cc2cnc3ccccc3c2)CC2CC2)cc1 [Example 87] is ____.
// result 5.22

// query Fill blank: measured pIC50 of the compound Cc1ccc(S(=O)(=O)Nc2ccccc2C(=O)N(Cc2ccccc2)Cc2cccnc2)cc1 [Example 8] is ____.
// result 6.05

// query Fill blank: measured pIC50 of the compound CCC(Cc1c[nH]c2ccccc12)NC(=O)c1cc(OC)ccc1NS(=O)(=O)c1ccc(C)cc1 (stereo not shown) [Example 140] is ____.
// result 5.85

Source listed as patent US7332608B2.
